Cited source for all entries: patent US12139488B2

Below, each of the compounds is paired with its reported IC50 value.
Test system: pERK in SW480 cells (KRAS G12D)
Assay: Phospho-ERK inhibition (AlphaLISA), SW480
Type: cell-based, human
Details: SW480 cells; class symbol before the bracket

| Smiles Record | IC50 |
| --- | --- |
| Nc1cccc2c1nnn2-c1ccc2ncnc(Nc3c(F)ccc(NS(=O)(=O)c4cccc(Cl)c4Cl)c3F)c2n1 | < 0.5 µM |
| COc1ccc(S(=O)(=O)Nc2ccc(F)c(Nc3ncnc4ccc(-n5ccnc5)nc34)c2F)cc1 | 1 to 10 µM |
| Nc1ncnc2c1ncn2-c1ccc2ncnc(Nc3c(F)ccc(NS(=O)(=O)c4ccccc4Cl)c3F)c2n1 | 1 to 10 µM |
| COc1ccc(S(=O)(=O)Nc2ccc(F)c(Nc3ncnc4ccc(-c5cccc(O)c5)nc34)c2F)c(C)c1 | 1 to 10 µM |
| COc1ccc(S(=O)(=O)Nc2ccc(F)c(Nc3ncnc4ccc(-c5cncs5)nc34)c2F)c(C)c1 | 0.5 to 1 µM |
| N#Cc1cccc(-c2ccc3ncnc(Nc4c(F)ccc(NS(=O)(=O)c5ccccc5Cl)c4F)c3n2)c1 | 1 to 10 µM |
| Nc1cccc2c1ncn2-c1ccc2ncnc(Nc3c(F)ccc(NS(=O)(=O)c4ccccc4Cl)c3F)c2n1 | < 0.5 µM |
| N#Cc1ccc(-c2ccc3ncnc(Nc4c(F)ccc(NS(=O)(=O)c5ccccc5Cl)c4F)c3n2)cc1 | 1 to 10 µM |

====

Target: CRAF (Homo sapiens)
Assay: CRAF kinase activity assay (ADP-Glo)
Type: biochemical
Details: CRAF; read-out: Kinase IC50 (nM), CRAF biochemical kinase assay

| Smiles Record | IC50 |
| --- | --- |
| O=S(=O)(Nc1ccc(F)c(Nc2ncnc3ccc(-n4cnc5nccnc54)nc23)c1F)c1cccc(Cl)c1Cl | > 50 nM |
| O=S(=O)(Nc1ccc(F)c(Nc2ncnc3ccc(-c4cnc5n4CCCC5)nc23)c1F)c1cccc(Cl)c1Cl | < 10 nM |
| Cc1cn(-c2ccc3ncnc(Nc4c(F)ccc(NS(=O)(=O)c5cccc(Cl)c5Cl)c4F)c3n2)nn1 | < 10 nM |
| O=S(=O)(Nc1ccc(F)c(Nc2ncnc3ccc(-n4cnc5c(C6(CO)CC6)cccc54)nc23)c1F)c1cccc(Cl)c1Cl | < 10 nM |
| O=S(=O)(Nc1ccc(F)c(Nc2ncnc3ccc(-n4cnc5c(N6C7CCC6CN(CCO)C7)cccc54)nc23)c1F)c1cccc(Cl)c1Cl | 10 to 50 nM |
| CN1CCN(c2ncc(-c3ccc4ncnc(Nc5c(F)ccc(NS(=O)(=O)c6cccc(Cl)c6Cl)c5F)c4n3)s2)CC1 | 10 to 50 nM |
| O=S1(=O)CCN(c2cccc3c2ncn3-c2ccc3ncnc(Nc4c(F)ccc(NS(=O)(=O)c5cccc(Cl)c5Cl)c4F)c3n2)CC1 | < 10 nM |
| O=S(=O)(Nc1ccc(F)c(Nc2ncnc3ccc(-n4cnc5c(N6CCNCC6)cccc54)nc23)c1F)c1cccc(Cl)c1Cl | < 10 nM |

====

Below, each of the compounds is paired with its reported IC50 value.
Target: CRAF (Homo sapiens, UniProt P04049)
Sequence (P04049 whole entry, looked up): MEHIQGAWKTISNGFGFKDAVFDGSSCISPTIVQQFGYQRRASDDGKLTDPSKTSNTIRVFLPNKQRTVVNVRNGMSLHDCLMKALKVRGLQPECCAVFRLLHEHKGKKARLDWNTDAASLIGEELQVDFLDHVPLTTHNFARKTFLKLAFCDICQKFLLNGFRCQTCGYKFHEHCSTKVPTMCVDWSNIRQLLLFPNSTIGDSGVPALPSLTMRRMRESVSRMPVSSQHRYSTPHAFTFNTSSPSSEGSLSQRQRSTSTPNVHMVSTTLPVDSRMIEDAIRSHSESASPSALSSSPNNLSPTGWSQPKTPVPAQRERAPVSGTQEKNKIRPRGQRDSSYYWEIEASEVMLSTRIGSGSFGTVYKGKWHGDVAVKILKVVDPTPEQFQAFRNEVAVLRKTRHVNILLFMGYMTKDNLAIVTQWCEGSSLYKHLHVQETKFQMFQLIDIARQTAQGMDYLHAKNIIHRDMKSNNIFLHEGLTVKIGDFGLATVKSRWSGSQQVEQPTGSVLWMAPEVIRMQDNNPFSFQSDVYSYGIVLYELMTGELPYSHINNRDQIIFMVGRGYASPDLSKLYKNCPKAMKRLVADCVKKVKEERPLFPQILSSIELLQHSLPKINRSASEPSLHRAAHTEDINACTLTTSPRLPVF
Assay: CRAF kinase activity assay (ADP-Glo)
Type: biochemical
Conditions: CRAF; read-out: Kinase IC50 (nM), CRAF biochemical kinase assay

| Smiles Record | Tested System | IC50 |
| --- | --- | --- |
| O=S(=O)(Nc1ccc(F)c(Nc2ncnc3ccc(-c4cnc(N5CCOCC5)s4)nc23)c1F)c1cccc(Cl)c1Cl | CRAF (Homo sapiens, UniProt P04049) | 10 to 50 nM |
| O=S(=O)(Nc1ccc(F)c(Nc2ncnc3ccc(-n4cnc5c(C6CCN(CCO)CC6)cccc54)nc23)c1F)c1cccc(Cl)c1Cl | CRAF (Homo sapiens, UniProt P04049) | < 10 nM |
| N#CC1(c2cccc3c2nnn3-c2ccc3ncnc(Nc4c(F)ccc(NS(=O)(=O)c5cccc(Cl)c5Cl)c4F)c3n2)CC1 | CRAF (Homo sapiens, UniProt P04049) | < 10 nM |
| CCC1(O)CCN(c2nccc3c2ncn3-c2ccc3ncnc(Nc4c(F)ccc(NS(=O)(=O)c5cccc(Cl)c5Cl)c4F)c3n2)CC1 | CRAF (Homo sapiens, UniProt P04049) | 10 to 50 nM |
| Cc1ncc(-c2ccc3ncnc(Nc4c(F)ccc(NS(=O)(=O)c5cccc(Cl)c5Cl)c4F)c3n2)[nH]1 | CRAF (Homo sapiens, UniProt P04049) | 10 to 50 nM |
| O=S(=O)(Nc1ccc(F)c(Nc2ncnc3ccc(-n4cnc5c(N6CCC(O)(CCO)CC6)cccc54)nc23)c1F)c1cccc(Cl)c1Cl | CRAF (Homo sapiens, UniProt P04049) | < 10 nM |
| Cc1c(F)cccc1S(=O)(=O)Nc1ccc(F)c(Nc2ncnc3ccc(-n4ncc5c4CN(C)CC5)nc23)c1F | CRAF (Homo sapiens, UniProt P04049) | > 50 nM |
